# TARGET OR TEST SYSTEM: Monoamine transporters; Norepininephrine & dopamine (Rattus norvegicus) (UniProt P23977+Q9WTR4)
# ASSAY NOTES: Ratio of IC50 value against NE to that of DA transporters
# Format: protein assay
Rule: Ratio under 100 gives n, otherwise y.

molecule="COc1ccc(OC(=O)C2C(c3ccc(Cl)cc3)CC3CCC2N3C)cc1 (stereo unspecified)" label_value=n
molecule="Cc1ccc(OC(=O)C2C(c3ccc(C)cc3)CC3CCC2N3C)cc1 (stereo unspecified)" label_value=n
molecule="CNC(=O)C1C(c2ccc(Cl)cc2)CC2CCC1N2C (stereo unspecified)" label_value=y
molecule="Cc1ccccc1OC(=O)C1C(c2ccc(Cl)cc2)CC2CCC1N2C (stereo unspecified)" label_value=y
molecule="CCN(CC)C(=O)C1C(c2ccc(C)cc2)CC2CCC1N2C (stereo unspecified)" label_value=y
molecule="CN(C)C(=O)C1C(c2ccc(Cl)cc2)CC2CCC1N2C (stereo unspecified)" label_value=y
